Data origin, for the record: the supplement of paper PMC5908809

- System: KHYG-1 (IL-2 2.5 ng/mL);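 also: normalised to DMSO-only wells as negative and benzethonium chloride as positive control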
- measurement_notes: percent inhibition of viability; higher = more inhibition
- reported_conditions: 72 h; 10000 nM
measured_endpoint: percent inhibition of viability (%)

{"compound": "N#Cc1ccc(C(c2ccc(C#N)cc2)n2cncn2)cc1 [Letrozole] (max concentration tested 10000 nM)", "target_under_test": "KHYG-1 (IL-2 2.5 ng/mL)", "data_value": 5.03}
{"compound": "Clc1ccc(C(c2ccccc2Cl)C(Cl)Cl)cc1 (configuration not stated) [Mitotane] (max concentration tested 10000 nM)", "target_under_test": "KHYG-1 (IL-2 2.5 ng/mL)", "data_value": -6.11}
{"compound": "c1ccc2c(CCNc3ccc(Nc4ccncc4)cc3)c[nH]c2c1 [Serdemetan] (max concentration tested 10000 nM)", "target_under_test": "KHYG-1 (IL-2 2.5 ng/mL)", "data_value": 94.6}
{"compound": "CNC(=O)c1cc(COc2nnc(Nc3ccc(Cl)cc3)c3ccoc23)ccn1 [Telatinib] (max concentration tested 10000 nM)", "target_under_test": "KHYG-1 (IL-2 2.5 ng/mL)", "data_value": 17.2}
{"compound": "O=C1CN2Cc3c(ccc(Cl)c3Cl)N=C2N1 [Anagrelide] (max concentration tested 10000 nM)", "target_under_test": "KHYG-1 (IL-2 2.5 ng/mL)", "data_value": 2.12}
{"compound": "O=C(Nc1cccnc1)N1CCC(Cc2cccc(Oc3ccc(C(F)(F)F)cn3)c2)CC1 [PF-3845] (max concentration tested 10000 nM)", "target_under_test": "KHYG-1 (IL-2 2.5 ng/mL)", "data_value": 60.7}
{"compound": "Cc1ccccc1C(C(=O)NC1CCCCC1)N(C(=O)Cn1ccnc1C)c1cccc(F)c1 (configuration not stated) [AGI-5198] (max concentration tested 10000 nM)", "target_under_test": "KHYG-1 (IL-2 2.5 ng/mL)", "data_value": 10.8}
{"compound": "Nc1nc2[nH]cnc2c(=S)[nH]1 [Thioguanine] (max concentration tested 10000 nM)", "target_under_test": "KHYG-1 (IL-2 2.5 ng/mL)", "data_value": 106}
{"compound": "O=C(O)CCCCC(CCSCc1ccccc1)SCc1ccccc1 (configuration not stated) [CPI-613] (max concentration tested 10000 nM)", "target_under_test": "KHYG-1 (IL-2 2.5 ng/mL)", "data_value": 14.3}
{"compound": "CN1CCN(c2ccc3nc(-c4c(N)c5c(F)cccc5[nH]c4=O)[nH]c3c2)CC1 [Dovitinib] (max concentration tested 10000 nM)", "target_under_test": "KHYG-1 (IL-2 2.5 ng/mL)", "data_value": 2.7}
{"compound": "C[C@]1(O)C[C@@H](c2nc(-c3ccc4ccc(-c5ccccc5)nc4c3)c3c(N)nccn32)C1 [Linsitinib] (max concentration tested 10000 nM)", "target_under_test": "KHYG-1 (IL-2 2.5 ng/mL)", "data_value": 8.9}
{"compound": "C[C@@]1(C(=O)Nc2ccc(F)nc2)CCCN1c1nc(Nc2cc(C3CC3)n[nH]2)c2cccn2n1 (max concentration tested 10000 nM)", "target_under_test": "KHYG-1 (IL-2 2.5 ng/mL)", "data_value": 70.8}
{"compound": "O=C(Nc1ccc(-c2ccnc(Nc3ccc(N4CCOCC4)cc3)n2)cc1)C1CCCN1 (configuration not stated) [XL019] (max concentration tested 10000 nM)", "target_under_test": "KHYG-1 (IL-2 2.5 ng/mL)", "data_value": 81.2}
{"compound": "FC(F)c1nc2ccccc2n1-c1nc(N2CCOCC2)nc(N2CCOCC2)n1 [ZSTK474] (max concentration tested 10000 nM)", "target_under_test": "KHYG-1 (IL-2 2.5 ng/mL)", "data_value": 48}
{"compound": "C[C@@H](Oc1cc(-n2cnc3ccc(CN4CCN(C)CC4)cc32)sc1C(N)=O)c1ccccc1C(F)(F)F (max concentration tested 10000 nM)", "target_under_test": "KHYG-1 (IL-2 2.5 ng/mL)", "data_value": 109}
{"compound": "Nc1cc(C(F)(F)F)c(-c2cc(N3CCOCC3)nc(N3CCOCC3)n2)cn1 [Buparlisib] (max concentration tested 10000 nM)", "target_under_test": "KHYG-1 (IL-2 2.5 ng/mL)", "data_value": 101}
{"compound": "Cc1ccc(-c2cc(C(F)(F)F)nn2-c2ccc(S(N)(=O)=O)cc2)cc1 [Celecoxib] (max concentration tested 10000 nM)", "target_under_test": "KHYG-1 (IL-2 2.5 ng/mL)", "data_value": 11.5}
{"compound": "Nc1nc(F)nc2c1ncn2[C@@H]1O[C@H](CO)[C@@H](O)[C@@H]1O [Fludarabine] (max concentration tested 10000 nM)", "target_under_test": "KHYG-1 (IL-2 2.5 ng/mL)", "data_value": 82.9}
{"compound": "Cn1cc(-c2ccc3nnc(C(F)(F)c4ccc5ncccc5c4)n3n2)cn1 (max concentration tested 10000 nM)", "target_under_test": "KHYG-1 (IL-2 2.5 ng/mL)", "data_value": 7.11}
{"compound": "Cc1cc(C)c(CNC(=O)c2cc(-c3ccc(CN4CCOCC4)cc3)cc3c2cnn3C2CCCC2)c(=O)[nH]1 [EPZ-5687] (max concentration tested 10000 nM)", "target_under_test": "KHYG-1 (IL-2 2.5 ng/mL)", "data_value": -3.04}
{"compound": "N#Cc1ccc(COC[C@H]2O[C@@H](n3c(NCc4ccc(Cl)c(Cl)c4)nc4c(N)ncnc43)[C@H](O)[C@@H]2O)cc1 (max concentration tested 10000 nM)", "target_under_test": "KHYG-1 (IL-2 2.5 ng/mL)", "data_value": 62.4}
{"compound": "C=C1C[C@@H]2[C@H](CC[C@]3(C)C(=O)CC[C@@H]23)[C@@]2(C)C=CC(=O)C=C12 [Exemestane] (max concentration tested 10000 nM)", "target_under_test": "KHYG-1 (IL-2 2.5 ng/mL)", "data_value": 29.8}
